Entries and their EC50
# system: cynomolgus LIV-1 (cynomolgus, UniProt A0A2K5WH46 30-741)
# Sequence (A0A2K5WH46 entry or part of it): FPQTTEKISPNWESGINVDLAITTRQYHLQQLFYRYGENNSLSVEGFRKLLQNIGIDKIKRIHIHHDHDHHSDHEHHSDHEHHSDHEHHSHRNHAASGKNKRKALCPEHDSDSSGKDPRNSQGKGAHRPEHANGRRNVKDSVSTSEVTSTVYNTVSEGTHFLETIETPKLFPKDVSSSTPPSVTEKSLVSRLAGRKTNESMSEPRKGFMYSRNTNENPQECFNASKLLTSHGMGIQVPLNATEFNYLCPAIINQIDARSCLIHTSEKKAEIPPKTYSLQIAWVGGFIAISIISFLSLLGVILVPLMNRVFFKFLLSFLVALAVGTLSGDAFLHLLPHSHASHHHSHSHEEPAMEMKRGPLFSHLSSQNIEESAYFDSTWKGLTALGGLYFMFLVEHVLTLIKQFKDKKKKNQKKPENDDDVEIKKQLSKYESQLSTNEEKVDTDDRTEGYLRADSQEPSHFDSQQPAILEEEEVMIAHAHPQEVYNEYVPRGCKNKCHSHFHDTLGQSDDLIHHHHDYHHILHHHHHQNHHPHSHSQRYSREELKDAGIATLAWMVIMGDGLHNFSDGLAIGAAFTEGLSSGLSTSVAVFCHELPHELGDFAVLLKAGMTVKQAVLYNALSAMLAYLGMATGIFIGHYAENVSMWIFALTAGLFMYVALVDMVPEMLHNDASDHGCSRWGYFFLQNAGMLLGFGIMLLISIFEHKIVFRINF
# assay: FACS, HEK293/Cyno_LIV-1 cells
Write the answer as a number in nM, unit excluded.

Please review the entries below; each comes with its answer.
5D6B10.Z11 (antibody, V domains shown) VH: QVQLQESGPGLVKPSGTLSLTCAVSGFSLTTYGIHWVRQSPGKGLEWLGVIWTGGTTDYNAAFISRLTISKDKSKNQVSLKLSSVTAADTAVYYCARGPSSYWGQGTLVTVSS VL: EIVMTQSPATLSVSPGERATVSCKASQNVDTNVVWYQQKPGQSPRALIHSASYRYSGVPDRFSGSGSGTDFTLTISSLQSEDFAVYFCQQYNNYPWTFGQGTKVEIK ... 11.6
5D6B10.Z2 (antibody, V domains shown) VH: QVQLVESGGGVVQPGRSLRLSCAVSGFSLTTYGIHWVRQAPGKGLEWLAVIWTGGTTDYNAAFISRFTISKDNSKSTLYLQMNSLRAEDTAVYYCARGPSSYWGQGTLVTVSS VL: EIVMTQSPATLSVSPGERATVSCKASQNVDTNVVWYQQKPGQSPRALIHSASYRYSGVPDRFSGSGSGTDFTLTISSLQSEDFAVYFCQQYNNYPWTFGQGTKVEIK ... 4.56

query: Tell me measured EC50 for 5D6B10.Z6 (antibody, V domains shown) VH: QVQLVESGGGVVQPGRSLRLSCTVSGFSLTTYGIHWVRQSPGKGLEWLGVIWTGGTTDYNAAFISRLTISKDNSKSTLYFQMNSLRAEDTAVYYCARGPSSYWGQGTLVTVSS VL: DIVMTQSPATLSVSPGERVTVSCKASQNVDTNVVWYQQKPGQSPRALIHSASYRYSGVPDRFSGSGSGTDFTLTISSVQSEDFAVYFCQQYNNYPWTFGGGTKLEIK please.
result: 0.16
